- target under test: T1, human GIP receptor (human, UniProt P48546 22-466)
- T1 sequence (looked up): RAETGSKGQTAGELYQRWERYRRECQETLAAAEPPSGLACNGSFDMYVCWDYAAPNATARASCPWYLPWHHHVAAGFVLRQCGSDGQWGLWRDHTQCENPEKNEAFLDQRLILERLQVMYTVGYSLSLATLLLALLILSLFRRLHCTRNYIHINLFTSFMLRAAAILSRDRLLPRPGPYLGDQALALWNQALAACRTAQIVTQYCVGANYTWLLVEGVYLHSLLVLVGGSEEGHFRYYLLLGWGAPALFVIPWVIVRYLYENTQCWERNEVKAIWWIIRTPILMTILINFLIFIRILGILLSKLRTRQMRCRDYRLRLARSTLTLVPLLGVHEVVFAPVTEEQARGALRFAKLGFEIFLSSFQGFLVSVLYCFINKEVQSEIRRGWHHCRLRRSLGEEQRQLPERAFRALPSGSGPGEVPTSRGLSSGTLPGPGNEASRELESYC
- procedure details: cell-based or functional assay
observation type: cAMP Emax (1.0% HSA)
Give me the value, and tack the unit on after it.

Example results:
binder	cAMP Emax (1.0% HSA)
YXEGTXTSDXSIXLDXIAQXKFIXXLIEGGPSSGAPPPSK (Y-Aib-EGT-αMeF(2F)-TSD-OMeY-SI-αMeL-LD-Orn-IAQ-Aib-K((2-[2-(2-Amino-ethoxy)-ethoxy]-acetyl)2-(γ-Glu)-CO-(CH2)12-CO2H)FI-(D-Glu)-αMeY-LIEGGPSSGAPPPSK((2-[2-(2-Amino-ethoxy)-ethoxyl-acetyl)2-(γ-Glu)-CO-(CH2)12-CO2H)-NH2) [Example 264]	84.4%
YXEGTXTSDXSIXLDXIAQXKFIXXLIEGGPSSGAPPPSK (Y-Aib-EGT-αMeF(2F)-TSD-2Nal-SI-αMeL-LD-Orn-IAQ-Aib-K((2-[2-(2-Amino-ethoxy)-ethoxy]-acetyl)2-CO-(CH2)12-CO2H)Fl-(D-Glu)-αMeY-LIEGGPSSGAPPPSK((2-[2-(2-Amino-ethoxy)-ethoxy]-acetyl)2-CO-(CH2)12-CO2H)-NH2) [Example 258]	84.3%
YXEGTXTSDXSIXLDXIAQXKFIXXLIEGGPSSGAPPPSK (Y-Aib-EGT-αMeF(2F)-TSD-OMeY-SI-αMeL-LD-Orn-IAQ-Aib-K((2-[2-(2-Amino-ethoxy)-ethoxy]-acetyl)2-CO-(CH2)12-CO2H)FI-(D-Glu)-αMeY-LIEGGPSSGAPPPSK((2-[2-(2-Amino-ethoxy)-ethoxy]-acetyl)2-CO-(CH2)12-CO2H)-NH2) [Example 268]	92.3%
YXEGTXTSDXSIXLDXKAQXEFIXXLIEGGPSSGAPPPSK (Y-Aib-EGT-αMeF(2F)-TSD-4Pal-SI-αMeL-LD-Orn-K((2-[2-(2-Amino-ethoxy)-ethoxy]-acetyl)2-CO-(CH2)12-CO2H)AQ-Aib-EFI-(D-Glu)-αMeY-LIEGGPSSGAPPPSK((2-[2-(2-Amino-ethoxy)-ethoxy]-acetyl)2-CO-(CH2)12-CO2H)-NH2) [Example 221]	67.4%
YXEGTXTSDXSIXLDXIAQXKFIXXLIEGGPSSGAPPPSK (Y-Aib-EGT-αMeF(2F)-TSD-4Pal-SI-αMeL-LD-Orn-IAQ-Aib-K(2-[2-(2-Amino-ethoxy)-ethoxy]-acetyl)2-(γ-Glu)-(11-(4-carboxyphenoxy)undecanoyl)FI-(D-Glu)-αMeY-LIEGGPSSGAPPPSK((2-[2-(2-Amino-ethoxy)-ethoxy]-acetyl)2-(γ-Glu)-(11-(4-carboxyphenoxy)undecanoyl)-NH2)) [Example 288]	85.2%

Field: next binder
The binder identified as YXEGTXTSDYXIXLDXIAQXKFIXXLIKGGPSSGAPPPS (Y-Aib-EGT-αMeF(2F)-TSDY-Aib-I-αMeL-LD-Orn-IAQ-Aib-K((2-[2-(2-Amino-ethoxy)-ethoxy]-acetyl)2-(γ-Glu)-CO-(CH2)12-CO2H)Fl-(D-Glu)-αMeY-LIK((2-[2-(2-Amino-ethoxy)-ethoxy]-acetyl)2-(γ-Glu)-CO-(CH2)12-CO2H)GGPSSGAPPPS-NH2) [Example 234] registered its cAMP Emax (1.0% HSA) at 84.4%
